Values compiled from PubChem BioAssay (NCI).

- System: A549 NSCLC
- assay.name: NCI tumour cell line growth inhibition, 48 h
Kindly state TGI for each of the entries shown.

query: A549 NSCLC / TGI / `O=NNc1ccc(S(=O)(=O)c2ccc3ccccc3c2)cn1` : value?
result: > 100 µM

query: Another compound to check: `CCCCCCCCCCCCOCC1(COCCCCCCCCCCCC)COC(c2ccc(N)cc2)OC1`
result: > 100 µM

query: Now this one: `C[C@@H]1CC[C@@H]2[C@@H](C1)O[C@@H]([C@@H](C)OCc1ccccc1)SC2(C)C`
result: 83.4 µM

query: Param item: `C=C1CC[C@H]2C(C)=CC[C@H]3C(=C)C(=O)O[C@@H]3[C@@H]12`
result: > 100 µM

query: // next record COC(=O)c1ccc2c(c1)CC1(C2)Cc2ccccc2C1=O (stereo not given)
result: > 100 µM

query: Do the same for COc1ccc(C2Cc3cc(OC)c(OC)c(OC)c3C2)cc1 (stereo not given) please
result: 76.2 µM

query: Please give the result for OCC(O)C(O)C(O)C(O)c1nnc2c(-c3ccccc3)nc3ccccc3n12 (stereo not given) too.
result: > 100 µM

query: Thanks! And `COc1ccc(-c2nc(Nc3ccccc3)sc2Cc2sc(Nc3ccccc3)nc2-c2ccc(OC)cc2)cc1` ?
result: > 100 µM

query: What about this compound? `Nc1ccccc1C(=O)N=Nc1c(O)[nH]c2ccccc12`
result: > 100 µM

query: // next record `COc1ccc(-c2cc(/C=C/C(=O)c3ccc(N)cc3)[nH]n2)cc1`
result: 10.2 µM

====

For each of the compounds below, state its GI50.
- Test system: SN12C renal
- assay.name: NCI tumour cell line growth inhibition, 48 h

query: Recorded GI50 for `COc1ccc(/C=C/C(=O)c2cc3c(N)c(C(=O)Nc4ccc(OC)cc4)sc3nc2C)cc1` , please?
result: 0.284 µM

query: Same read-out for CCOC1Oc2ccc(C)cc2C(=O)/C1=C\Nc1ccc(S(N)(=O)=O)cc1 (configuration not stated) ?
result: 11.6 µM

query: Input `Nn1c(-c2ccc(Cl)cc2)nc2c(-c3ccc(Cl)cc3)nc3ccc(Cl)cc3c2c1=O`
result: 7.46 µM

query: Moving on to the next compound: `CCOC(=O)c1c(CN2CCN(C)CC2)nc2ccc(Cl)cc2c1-c1ccccc1`
result: 11.6 µM

query: And then `CCOC(=O)c1c(NC(=O)c2ccc(Cl)cc2)sc2c(CN(C)C)c(O)ccc12` , what is it?
result: 14.6 µM

query: Please answer likewise for `CCn1c(-c2nonc2N)nc2cnc(Oc3cccc(NC(=O)c4ccc(N(C)C)cc4)c3)cc21`
result: > 25 µM

query: Thanks! And COc1cc(NC2CCCCC2O)c2nc(-c3ccc(Cl)cc3)ccc2c1 (configuration not stated) ?
result: 9.96 µM

====

- System: UO-31 renal
- assay.name: NCI tumour cell line growth inhibition, 48 h
Where a SMILES comes first, the peptide text is derived from it. The star is where a group is joined. Boc = CC(C)(C)OC(=O)*; nBu = CCCC*
test.readout: TGI

query: Lab note: need TGI with UO-31 renal for entry `CCOC(=O)c1nc2ccc(C(F)(F)F)cc2nc1Nc1ccc(OC)cc1` , please look it up.
result: > 100 µM

query: Try CN1CCc2ccccc2C(C(=O)c2ccc3c(c2)OCO3)C1=O (stereo unspecified) next.
result: > 100 µM

query: Again, but for `COc1cc(-c2nn(-c3cccc(NC(=O)CCN4CCN(c5ccccc5)CC4)c3)cc2-c2ccncc2)ccc1Cl`
result: 48 µM

query: Try this compound too: `O=C1CCC(=O)N1Sc1ccccc1`
result: > 100 µM

query: Now try `CN(C)c1ccc(-c2ccc(-c3ccc(C(=N)N)cn3)o2)cc1` .
result: 2.91 µM

query: Further, for `Nc1ccccc1C#Cc1ccccc1C#Cc1cccs1` ?
result: 47.3 µM

query: Now try `COc1ccc(-c2c(N)noc2-c2cc(OC)c3c(c2)OCCO3)cc1` .
result: 56.9 µM

query: Queued: OCC(O)C(O)C(O)C(O)c1nnc2c(-c3ccccc3)nc3ccccc3n12 (stereo unspecified)
result: > 100 µM

query: Please answer likewise for CC(C)(C)OC(=O)N1CCCC1C(=O)NC(c1ccccc1)c1ccccc1 (stereo unspecified)
result: > 100 µM

query: Subsequent entry: CCCCOc1ccc(CC(NC(=O)OC(C)(C)C)C(=O)NC(C)C(=O)NC(Cc2ccccc2)C(=O)NCC(N)=O)cc1 (stereo unspecified) (Boc-Y(nBu)AFG-NH2; configuration not given here)
result: > 100 µM

query: Try this compound too: `COc1ccc(CCn2cncn2)cc1`
result: > 100 µM
